Sourced from paper PMC1977788

biological target: EGFR (Homo sapiens, UniProt P00533); assay: 125I-EGF whole-cell saturation binding, ZR-75-1 cells, Woolf analysis
resultType: Kd (nM)
Answers are plain numbers, in nM.

### Prompt Looking for the measured Kd of EGF (protein) NSYPGCPSSYDGYCLNGGVCMHIESLDSYTCNCVIGYSGDRCQTRDLRWWELR , can you help?
### Response 0.23
